Could you please report measured % Intact Protein at 10 min for the items listed next?
assayMethodText: SGF digest of 168 nutritive polypeptide library, intact protein by LC-MS/MS
Type: in vitro ADME
experimentalSetup: 168 nutritive polypeptide library SGF digest, LC-MS/MS spectral counts
Numbers only, in %.

Worked cases, answers included:
SEQID-00562: protein of the 168 nutritive polypeptide library (protein, listed as Lactobacillus acidophilus, source: /note="strain 30SC", protein of the 168 nutritive polypeptide library) MKKFASFVLGAVAGCAAGFLAGSLLVSDEQVDDVKNKIKDNDKLQDLKKKYDNGTEIVKNQLASFPKNVEDDSELKDFDDIVIDDSNKDDDVTAGDNAQESVDDLNNAEEEHNAEDAEEDKPEA
0
SEQID-00570: protein of the 168 nutritive polypeptide library (protein, listed as Saccharomyces cerevisiae, source: /note="strain ATCC 204508 / S288c", protein of the 168 nutritive polypeptide library) MFLRNSVLRTAPVLRRGITTLTPVSTKLAPPAAASYSQAMKANNFVYVSGQIPYTPDNKPVQGSISEKAEQVFQNVKNILAESNSSLDNIVKVNVFLADMKNFAEFNSVYAKHFHTHKPARSCVGVASLPLNVDLEMEVIAVEKN
91.4

Could you now look at the following molecule, please?
Task: Field request: % Intact Protein at 10 min | item: SEQID-00574: protein of the 168 nutritive polypeptide library (protein, listed as Lactobacillus acidophilus, source: /note="strain 30SC", protein of the 168 nutritive polypeptide library) MPTINQLVRKGRHSKVTKSKSPALNYSYNSMKKESVFNPAPQMRGVATRVGTMTPKKPNSALRKYARVRLSNLIEVTAYIPGEGHNLQEHSVVLIRGGRVKDLPGVRYHIVRGALDTAGVDGRKQSRSKYGAKKD
Output: 0
